biological target: IL-17A/F (Homo sapiens, UniProt Q16552+Q96PD4); experiment: IL-17A/F HEK-Blue cell assay (SEAP reporter); conditions: HEK-Blue IL-17A reporter cells, IL17A/F 5 ng/mL, 20 hours, SEAP read at A630; read-out: HEK-Blue IL17AF (IC50 for IL-17A/F inhibition)
Sequence (Q16552 24-155): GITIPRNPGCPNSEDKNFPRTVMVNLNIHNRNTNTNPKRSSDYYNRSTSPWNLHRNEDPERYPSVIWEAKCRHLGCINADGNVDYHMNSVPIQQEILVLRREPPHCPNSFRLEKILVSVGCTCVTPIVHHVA
Sequence (Q96PD4 31-163): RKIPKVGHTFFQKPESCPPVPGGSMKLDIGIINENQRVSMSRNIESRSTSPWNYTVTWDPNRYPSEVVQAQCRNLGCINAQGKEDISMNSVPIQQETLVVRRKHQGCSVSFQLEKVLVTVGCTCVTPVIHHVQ
measuredMetric: IC50

1. CCn1nccc1C(=O)N[C@H](c1cn2nc(C[C@H]3C[C@@H](C(F)(F)F)CNC3=O)c(CN3CCC(F)(F)CC3)nc2n1)C1CCC(F)(F)CC1 [Compound 345] ... > 1 µM
2. CCn1nccc1C(=O)N[C@H](c1cn2nc(C[C@H]3C(=O)NC[C@H]4C[C@H]43)c(C3CCOCC3)nc2n1)C1CCC(F)(F)CC1 [Compound 429] ... > 1 µM
3. CCn1nccc1C(=O)N[C@H](c1cn2nc(C[C@H]3C[C@@H](C(F)(F)F)CNC3=O)cnc2n1)C(C1CC1)C1CC1 [Compound 29] ... > 1 µM
4. CCn1nccc1C(=O)N[C@H](c1cn2nc(C[C@H]3C[C@@H](C(F)(F)F)CNC3=O)c(N3CCN[C@@H](C)C3)nc2n1)C1CCC(F)(F)CC1 [Compound 239] ... > 1 µM
5. CCn1nccc1C(=O)N[C@H](c1cn2nc(C[C@H]3C[C@@H](C(F)(F)F)CNC3=O)c(CN3CCC(F)(F)C3)nc2n1)[C@H]1CC[C@H](C)CC1 [Compound 375] ... 0.1 to 1 µM
6. CCn1nccc1C(=O)N[C@H](c1cn2nc(C[C@H]3C[C@@H](C(F)(F)F)CNC3=O)c(CN3CC4(CC4)C3)nc2n1)C1CCC(F)(F)CC1 [Compound 339] ... > 1 µM

---

target: IL-17A/F (Homo sapiens, UniProt Q16552+Q96PD4); assay: IL-17A/F HEK-Blue cell assay (SEAP reporter); conditions: HEK-Blue IL-17A reporter cells, IL17A/F 5 ng/mL, 20 hours, SEAP read at A630; read-out: HEK-Blue IL17AF (IC50 for IL-17A/F inhibition)
pIC50: −log10 of the molar value.
measuredMetric: pIC50

1. CCn1nccc1C(=O)N[C@H](c1cn2nc(CC3C[C@@H](C(F)(F)F)CNC3=O)cnc2n1)[C@H]1CC[C@H](C)CC1 (single isomer, unassigned) [Compound 1] ... < 6.00
2. CCn1nccc1C(=O)N[C@H](c1cn2nc(C[C@H]3C[C@@H](C(F)(F)F)CNC3=O)c(N3CCOCC3)nc2n1)C1CCCCC1 [Compound 326] ... 6.00 to 7.00
3. CCn1nccc1C(=O)N[C@H](c1cn2nc(CC3C[C@@H](C(F)(F)F)CNC3=O)c(N3C[C@H]4CC[C@@H](C3)O4)nc2n1)C1CCC(F)(F)CC1 (single isomer, unassigned) [Compound 83] ... 6.00 to 7.00
4. CCn1nccc1C(=O)N[C@H](c1cn2nc(CC3C[C@@H](C(F)(F)F)CNC3=O)c(N3CCOCC3)nc2n1)[C@@H]1CCCC(F)(F)C1 (single isomer, unassigned) [Compound 94] ... 6.00 to 7.00
5. CCn1nccc1C(=O)N[C@H](c1cn2nc(C[C@H]3C[C@@H](C(F)(F)F)CNC3=O)c([C@H]3CCC(C)(C)OC3)nc2n1)C1CCC(F)(F)CC1 (single isomer, unassigned) [Compound 258] ... 6.00 to 7.00
6. O=C(N[C@H](c1cn2nc(C[C@H]3C[C@@H](C(F)(F)F)CNC3=O)cnc2n1)C1CCC(F)(F)CC1)c1conc1C1CC1 [Compound 38] ... < 6.00
7. CCc1nonc1C(=O)N[C@H](c1cn2nc(C[C@H]3C[C@@H](C(F)(F)F)CNC3=O)c(C3CCOCC3)nc2n1)[C@H]1C[C@H]2C[C@H]2C1 [Compound 317] ... < 6.00
8. CN(C)CCn1nccc1C(=O)N[C@H](c1cn2nc(C[C@H]3C[C@@H](C(F)(F)F)CNC3=O)c(C3CCOCC3)nc2n1)C1CCC(F)(F)CC1 [Compound 362] ... < 6.00
9. CCn1nccc1C(=O)N[C@H](c1cn2nc(CC3C[C@@H](C(F)(F)F)CNC3=O)c(C3CCOCC3)nc2n1)C1CCC(F)(F)CC1 (stereo in doubt) [Compound 89] ... < 6.00
10. Cn1nccc1C(=O)N[C@H](c1cn2nc(C[C@H]3C[C@@H](C(F)(F)F)CNC3=O)c(C3CCOCC3)nc2n1)C1CCCCCC1 [Compound 290] ... > 7.00
11. CCn1nccc1C(=O)N[C@H](c1cn2nc(C[C@H]3C[C@@H](C(F)(F)F)CNC3=O)c(N3CCO[C@@H](C)C3)nc2n1)[C@H]1CCCC(F)(F)C1 [Compound 123] ... 6.00 to 7.00
12. C[C@@H]1CN(c2nc3nc([C@@H](NC(=O)c4ccnn4C)[C@@H]4CCCC(F)(F)C4)cn3nc2C[C@H]2C[C@@H](C(F)(F)F)CNC2=O)CCO1 [Compound 307] ... > 7.00
13. O=C(N[C@H](c1cn2nc(C[C@H]3C[C@@H](C(F)(F)F)CNC3=O)c(C3CCOCC3)nc2n1)C1CCC(F)(F)CC1)c1ccnn1CCF [Compound 188] ... 6.00 to 7.00
14. CCc1nc2nc([C@@H](NC(=O)c3ccnn3CC)C3CCC(F)(F)CC3)cn2nc1C[C@H]1C[C@@H](C(F)(F)F)CNC1=O [Compound 167] ... 6.00 to 7.00
15. CCn1nccc1C(=O)N[C@H](c1cn2nc(C[C@H]3C[C@@H](C(F)(F)F)CNC3=O)c(N3CC4(CCOC4)C3)nc2n1)C1CCC(F)(F)CC1 [Compound 193] ... 6.00 to 7.00
16. CCn1nccc1C(=O)N[C@H](c1cn2nc(C[C@H]3C[C@@H](C(F)(F)F)CNC3=O)c(N3CC4CC(C3)N4C)nc2n1)C1CCC(F)(F)CC1 [Compound 360] ... 6.00 to 7.00
17. CCn1nccc1C(=O)N[C@H](c1cn2nc(C[C@H]3C[C@H](C(F)(F)F)CNC3=O)c(N3CCO[C@H](C)C3)nc2n1)[C@@H]1CCCC(F)(F)C1 [Compound 305] ... > 7.00
18. CCn1ncnc1C(=O)N[C@H](c1cn2nc(C[C@H]3C[C@@H](C(F)(F)F)CNC3=O)c(C(C)C)nc2n1)C1CCC(F)(F)CC1 [Compound 386] ... < 6.00
19. CCn1nccc1C(=O)N[C@H](c1cn2nc(C[C@H]3C[C@@H](C(F)(F)F)CNC3=O)c(C3CCOC4(C3)CN(C(=O)OC(C)(C)C)C4)nc2n1)C1CCC(F)(F)CC1 (stereo partly drawn) [Compound 240] ... 6.00 to 7.00
20. O=C(N[C@H](c1cn2nc(CC3C[C@@H](C(F)(F)F)CNC3=O)c(N3CCOCC3)nc2n1)C1CCC(F)(F)CC1)c1conc1C1CC1(F)F (single isomer, unassigned) [Compound 114] ... < 6.00
21. CCn1nccc1C(=O)N[C@H](c1cn2nc(C[C@H]3C[C@@H](C(F)(F)F)CNC3=O)c(C3CCOC(C)(C)C3)nc2n1)C1CCC(F)(F)CC1 (single isomer, unassigned) [Compound 176] ... > 7.00

---

biological target: IL-17A/A (Homo sapiens); test: IL-17A/A HEK-Blue cell assay (SEAP reporter); settings: HEK-Blue IL-17A reporter cells, IL17A/A 5 ng/mL, 20 hours, SEAP read at A630; read-out: HEK-Blue IL17AA (IC50 for IL-17A/A inhibition)
Sequence (Q16552 24-155): as the sequence (Q16552 24-155) above
measuredMetric: IC50

1. Cc1nonc1C(=O)N[C@H](c1cn2nc(C[C@H]3C[C@@H](C(F)(F)F)CNC3=O)c(CN3CCOCC3)nc2n1)C1CCC(F)(F)CC1 ... 100 to 1000 nM
2. CCn1nccc1C(=O)N[C@H](c1cn2nc(C[C@H]3C[C@@H](C(F)(F)F)CNC3=O)c(C3CCn4nccc4C3)nc2n1)C1CCC(F)(F)CC1 (some centres unmarked) ... < 100 nM
3. Cc1nonc1C(=O)N[C@H](c1cn2nc(C[C@H]3C[C@@H](C(F)(F)F)CNC3=O)c(C3CCOCC3)nc2n1)C1CCCCC1 ... < 100 nM
4. O=C(N[C@H](c1cn2nc(C[C@H]3C[C@@H](C(F)(F)F)CNC3=O)cnc2n1)C1CCC(F)(F)CC1)c1conc1C1CC1 ... 100 to 1000 nM
5. CCn1nccc1C(=O)N[C@H](c1cn2nc(C[C@H]3C[C@@H](C(F)(F)F)CNC3=O)c(N3CCOC(C)(C)C3)nc2n1)C1CCC(F)(F)CC1 ... < 100 nM
6. CCn1nccc1C(=O)N[C@H](c1cn2nc(CC3C[C@@H](C(F)(F)F)CNC3=O)c(N3CCOCC3)nc2n1)C1CCC(F)(F)CC1 (single isomer, unassigned) [Compound 17] ... < 100 nM
7. CCn1nccc1C(=O)N[C@H](c1cn2nc(C[C@@H]3C[C@H](C)CNC3=O)c(C3CCOCC3)nc2n1)C1CCC(F)(F)CC1 ... < 100 nM
8. Cn1nccc1C(=O)N[C@H](c1cn2nc(C[C@H]3C[C@@H](C(F)(F)F)CNC3=O)c([C@H]3CCCOC3)nc2n1)C1CCC(F)(F)CC1 (single isomer, unassigned) ... < 100 nM
9. Cc1nocc1C(=O)N[C@H](c1cn2nc(C[C@H]3C[C@@H](C(F)(F)F)CNC3=O)c(C3CCOCC3)nc2n1)C1CCC(F)(F)CC1 ... < 100 nM
10. CCn1nccc1C(=O)N[C@H](c1cn2nc(CC3C[C@H](C(F)(F)F)CNC3=O)c(N3CCOCC3)nc2n1)C1CCC(F)(F)CC1 (single isomer, unassigned) [Compound 54] ... < 100 nM
11. CCn1nccc1C(=O)N[C@H](c1cn2nc(CC3C[C@@H](C(F)(F)F)CNC3=O)c(N3CC4CC(C3)O4)nc2n1)[C@@H]1CCCC(F)(F)C1 (single isomer, unassigned) [Compound 97] ... < 100 nM

Attribution: patent US20260226068A1
